measured target: Cytochrome P450 2C19 (Homo sapiens)
experimental protocol: blockers of cytochrome P450 2C19 activity – biochemical, luminescence, ADME assay, primary screen (AID 778)
assay setup: CYP2C19 Supersomes, luciferin-H EGE luminescence, 30 min; at 5 µM
In all, about 96,000 compounds went through this assay and about 20,000 (21%) were called active.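 Rule for the calls: active = CYP2C19 inhibition above a set limit at 5 µM in the primary screen (cut at about 50% in these data); inactive = the rest.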 The list is a sample of the results.
Outcomes: active, inactive

In [3]: df
Out[3]:
                                   compound  class_name
0  COc1cccc(NC(=O)C2CCCN2C(=O)OCc2ccccc2)c1 (stereo not drawn)    inactive
1          Cc1nnc(SCC(=O)NC(=O)NC2CCCC2)n1N    inactive
2  C=C(C)Cn1c(N2CCCC2)nc2c1c(=O)[nH]c(=O)n2C    inactive
3   COc1ccc(/C=N/Nc2nc3ccccc3c(=O)[nH]2)cc1    inactive
4       CN(C(=O)c1ccccn1)c1nnc(-c2ccccn2)s1    inactive
5  Cc1cc(C)c2nc(NC(=O)C3CCCO3)sc2c1 (stereo not drawn)    inactive
6  Cc1cc(C)cc(N(CC(=O)NCC2CCCO2)S(=O)(=O)c2c(C)noc2C)c1 (stereo not drawn)      active
7  NC(=O)N1CCCC1C(=O)Nc1ccc(Cl)c(Cl)c1 (stereo not drawn)      active

----------
measured target: Cytochrome P450 2C19 (Homo sapiens)
experimental protocol: blockers of cytochrome P450 2C19 activity – biochemical, luminescence, ADME assay, primary screen (AID 778)
assay setup: CYP2C19 Supersomes, luciferin-H EGE luminescence, 30 min; at 5 µM
Among all 96,000 compounds or so, about 20,000 (21%) were called active.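 The calls were made as follows: active = CYP2C19 inhibition above a set limit at 5 µM in the primary screen (cut at about 50% in these data); inactive = the rest.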 Only a sample is shown.
Outcome codes: active, inactive

In [3]: df
Out[3]:
                              line_notation  class_name
0  CCOC(=O)c1c(NC(=O)CSc2nnc(C)c(=O)[nH]2)sc2c1CCC2    inactive
1                 CCCn1c(SCC(N)=O)nnc1C(C)C    inactive
2        O=C(CSC1=NCCS1)Nc1nc(-c2ccccc2)cs1    inactive
3  O=S(=O)(Nc1ccc2nc(-c3ccco3)[nH]c2c1)c1ccccc1      active
4  C=C(C)COc1ccc(-c2n[nH]c(C)c2-c2ccccc2OC)c(O)c1    inactive
5              C=C(C)C(=O)Nc1cccc(C(C)=O)c1    inactive
6  COC(=O)c1ccccc1NC(=O)C1CCN(S(=O)(=O)c2cc(OC)ccc2OC)CC1      active

----------
measured target: Cytochrome P450 2C19 (Homo sapiens)
experimental protocol: blockers of cytochrome P450 2C19 activity – biochemical, luminescence, ADME assay, primary screen (AID 778)
assay setup: CYP2C19 Supersomes, luciferin-H EGE luminescence, 30 min; at 5 µM; active compounds read high
About 20,000 (21%) of roughly 96,000 compounds were called active. Not all results are given here.
Outcome label depends on inhibition relative to 10%: at/above gives Fulfilled, below gives Not fulfilled.

>>> print(df.to_string())
                                    compound     class_name
 0  COc1ccc(OC)c(CNC(=O)C2CCCN(c3nc4ccccc4o3)C2)c1 (centres undefined)      Fulfilled
 1  C=CCn1c(SCc2c(C)noc2C)nc2sc3c(c2c1=O)CCC(C)C3 (centres undefined)      Fulfilled
 2  COc1ccc(N2C(=O)C3CCCN3C2c2cccc(OC)c2)cc1 (centres undefined)      Fulfilled
 3                  Cc1ccccc1NC(=O)NCc1ccco1  Not fulfilled
 4  CC(C(=O)Nc1ccc(F)c(F)c1F)N1CCCCCC1 (centres undefined)      Fulfilled
 5             Cc1nc2ccccc2c(=O)n1CCCn1ccnc1      Fulfilled
 6  CCOC(=O)N1CCC(Nc2c(NCCCN3CCN(CC)CC3)c(=O)c2=O)CC1  Not fulfilled
 7                 CCOc1ccccc1C(=O)NCc1ccco1      Fulfilled
 8  CCOc1ccc(NC(=O)CN(C)CC(=O)Nc2cccc(Cl)c2C)cc1OCC      Fulfilled
 9             O=C(NNC(=O)c1cccnc1)Nc1ccccc1  Not fulfilled
10  O=C(NCC12CC3CC(C1)CC(CNC(=O)N1CCCC1)(C3)C2)N1CCCC1  Not fulfilled
11                CC(C)C(=O)NC(=S)Nc1ccccc1F      Fulfilled
12  CCOc1ccccc1NC(=O)C1CCC(CNc2c(N3CCOCC3)c(=O)c2=O)CC1 (centres undefined)  Not fulfilled

The reported measurements were obtained from PubChem BioAssay AID778.
